FYI, the data here is from ChEMBL document CHEMBL1123452.

Species on record: Rattus norvegicus
Experiment: Percent decrease in serum cholesterol (Cho) after 7 days at 0.05 percent in the diet of SD male rats in comparison to control animals
Format: functional
Under this convention, rule met denotes Reduction strictly below 10% and rule not met denotes Reduction at or above 10%.

Identify whether the compound O=C(Cc1nc(-c2ccc(Cl)cc2)oc1-c1ccsc1)OCC(O)CO (configuration not stated) records Reduction below 10%. rule not met

Another compound to check: CCOC(=O)Cc1nc(-c2ccccc2)oc1-c1ccccc1 rule not met

Likewise for CCCCOC(=O)Cc1nc(-c2ccccc2)oc1-c1ccsc1 ? rule not met

Cool, now CCCCOC(=O)Cc1nc(-c2ccc(F)cc2)oc1-c1ccsc1 rule not met

Same read-out for O=C(O)c1ncoc1-c1ccccc1 ? rule met

Others:
Given the entry CCOC(=O)Cc1nc(-c2ccc(F)cc2)oc1-c1ccc(F)cc1 , would its reported Reduction be below 10%? rule met

Next up: CCCCCOC(=O)Cc1nc(-c2ccccc2)oc1-c1ccsc1 rule not met

Try this compound next: O=C(O)Cc1nc(-c2ccc(Cl)cc2)oc1-c1cccs1 rule not met

Subsequent entry: CCOC(=O)Cc1nc(-c2ccccc2)oc1-c1cccs1 rule not met

Please do the same for O=C(O)Cc1nc(-c2ccc(F)cc2)oc1-c1ccsc1 as well. rule not met

What about CCOC(=O)Cc1nc(-c2ccccc2Cl)oc1-c1ccsc1 ? rule met

Another: CCCCNC(=O)Cc1nc(-c2ccc(F)cc2)oc1-c1ccsc1 rule met

----------
Species: Rattus norvegicus
Assay: Percent decrease in serum cholesterol (Cho) after 7 days at 0.05 percent in the diet of SD male rats in comparison to control animals
Type: functional
Entry flag: criterion met if Reduction reaches 10%; criterion not met if it does not.

// below: answered compounds
Is Reduction at least 10%? Consider CCOC(=O)Cc1nc(-c2ccc(F)cc2)oc1-c1cccs1 criterion met

Try this compound too: CCNC(=O)Cc1nc(-c2ccc(F)cc2)oc1-c1ccsc1 criterion not met

Also check CCOC(=O)Cc1nc(-c2ccc(OC)cc2)oc1-c1ccsc1 criterion not met

Others:
Has CCOC(=O)Cc1nc(-c2ccc(Cl)cc2)oc1-c1ccc(Br)s1 a recorded Reduction greater than or equal to 10%? criterion not met

Please give the result for CCCCCOC(=O)Cc1nc(-c2ccc(Cl)cc2)oc1-c1ccsc1 too. criterion met

----------
Organism: Rattus norvegicus
Assay: Percent decrease in serum cholesterol (Cho) after 7 days at 0.05 percent in the diet of SD male rats in comparison to control animals
Type: functional
// F strictly below 8% in Reduction; T otherwise

Kindly determine if Reduction recorded for CCOC(=O)CCc1nc(-c2ccc(Cl)cc2)oc1-c1ccsc1 is above or exactly 8%. F

Next:
Exam item: decide whether the reported Reduction for CCOC(=O)Cc1nc(-c2ccc(Br)cc2)oc1-c1ccccc1 is at least 8%. T

What do you have for CCOC(=O)c1nc(-c2ccccc2)oc1-c1ccccc1 ? T

Now the same for O=C(O)Cc1nc(-c2ccc(Br)cc2)oc1-c1ccccc1 F

Try this compound next: O=C(OCc1nc(-c2ccc(F)cc2)oc1-c1ccsc1)c1cccnc1 F

CCOC(=O)Cc1nc(-c2ccc(Cl)cc2)oc1-c1ccc(C)s1 ? F

Now the same for C=CCOC(=O)Cc1nc(-c2ccc(Cl)cc2)oc1-c1ccsc1 T

Now try CCCCCCCCCCCCOC(=O)Cc1nc(-c2ccc(F)cc2)oc1-c1ccsc1 . T

----------
Species on record: Rattus norvegicus
Test: Percent decrease in serum cholesterol (Cho) after 7 days at 0.05 percent in the diet of SD male rats in comparison to control animals
Type: functional
Listed here: items and their measured Reduction.
Field: numeric (%). Do not append units.

# input compound: CCN(CC)C(=O)Cc1nc(-c2ccc(F)cc2)oc1-c1ccsc1 ; wanted: its Reduction -2

Can you check O=C(O)Cc1nc(-c2ccc(Cl)c(Cl)c2)oc1-c1ccsc1 next? 9

New cases:
Any idea what Reduction was measured for O=C(O)Cc1nc(-c2ccc(Cl)cc2)oc1-c1ccsc1 ? 16

Here is the next compound: C=CCc1nc(-c2ccc(F)cc2)oc1-c1ccsc1 -2

Lookup CCOC(=O)Cc1nc(-c2ccc(OC)cc2)oc1-c1ccccc1 0

Proceed to OCc1nc(-c2ccc(F)cc2)oc1-c1ccsc1 -10

Can you handle CCOC(=O)Cc1nc(-c2ccc(C)cc2)oc1-c1ccccc1 next? 5

Param item: CCc1nc(-c2ccc(F)cc2)oc1-c1ccsc1 -4

How about CCOC(=O)Cc1nc(-c2ccc(Cl)cc2)oc1-c1ccccc1 ? 7

----------
Species: Rattus norvegicus
Experiment: Percent decrease in serum cholesterol (Cho) after 7 days at 0.05 percent in the diet of SD male rats in comparison to control animals
Assay type: functional
Quick reference for Reduction among some compounds
Answer with a number only, understood to be in %.

Example compounds with recorded Reduction:
Entry under review: CCOC(=O)Cc1nc(-c2ccc(F)cc2)oc1-c1ccccc1 . Reported Reduction? 3

And the next one, O=C(O)Cc1nc(-c2ccccc2Cl)oc1-c1ccsc1 ? 1

Repeat with CCCCCCCCOC(=O)Cc1nc(-c2ccc(F)cc2)oc1-c1ccsc1 12

// same read-out, input: CCCCCCCCCCCCCCCCCCOC(=O)Cc1nc(-c2ccc(F)cc2)oc1-c1ccsc1 18

Thanks! And CCOC(=O)Cc1nc(-c2ccc(Cl)cc2)oc1-c1ccsc1 ? 16

Continue with the compound presented below.
For the compound OCCc1nc(-c2ccc(F)cc2)oc1-c1ccsc1 , what Reduction is on record? 4

----------
Species on record: Rattus norvegicus
Assay: Percent decrease in serum cholesterol (Cho) after 7 days at 0.05 percent in the diet of SD male rats in comparison to control animals
Assay type: functional
ASSAY READOUT: Reduction (%)
Dear colleague, please return just the value in %, with no unit written.

A selection of reference data follows.
Reported Reduction for CCOC(=O)Cc1nc(-c2ccsc2)oc1-c1ccc(F)cc1 : what is it? 11

Repeat with CC(C(=O)O)c1nc(-c2ccc(F)cc2)oc1-c1ccsc1 (configuration not stated) 6

Note, next up: COc1ccc(-c2nc(CC(=O)O)c(-c3ccsc3)o2)cc1 3

---
Quick one: Reduction of CCOC(=O)Cc1nc(-c2cc(OC)c(OC)c(OC)c2)oc1-c1ccccc1 ? 0

----------
Species on record: Rattus norvegicus
Assay: Percent decrease in serum cholesterol (Cho) after 7 days at 0.05 percent in the diet of SD male rats in comparison to control animals
Type: functional
ASSAY READOUT: Reduction (%)
Note: unit % is implicit; provide only the numeric part.

I'd like to know its Reduction. The compound in question is CCOC(=O)Cc1nc(-c2ccc(Br)cc2)oc1-c1ccc(F)cc1 12

Next compound up: Cc1ccc(-c2oc(-c3ccc(Cl)cc3)nc2CC(=O)O)s1 9

Entry to check: Cc1ccc(-c2nc(CC(=O)O)c(-c3ccsc3)o2)cc1 9

Can you handle CCOC(=O)Cc1nc(-c2ccc(Cl)cc2)oc1-c1cccs1 next? 15

Item: CCOC(=O)Cc1nc(-c2ccc(Cl)cc2)oc1-c1ccc(F)cc1 22

Repeat with O=C(O)Cc1nc(-c2cccc(Cl)c2)oc1-c1ccsc1 7

For O=C(O)Cc1nc(-c2ccccc2)oc1-c1cccs1 then? -4

Repeat with CCOC(=O)Cc1nc(-c2ccc(C)cc2)oc1-c1ccsc1 5

Moving on to COC(=O)Cc1nc(-c2ccc(Cl)cc2)oc1-c1ccsc1 14

Also NC(=O)Cc1nc(-c2ccc(Cl)cc2)oc1-c1ccsc1 , if possible. 16

More entries:
Item under review: CC(C)OC(=O)Cc1nc(-c2ccc(Cl)cc2)oc1-c1ccsc1 . Reported Reduction? 9

----------
Species on record: Rattus norvegicus
Assay: Percent decrease in serum cholesterol (Cho) after 7 days at 0.05 percent in the diet of SD male rats in comparison to control animals
Assay type: functional
ASSAY READOUT: Reduction (%)
Give your result in % as a bare value.

Answered examples (2):
For CCOC(=O)Cc1nc(-c2ccccc2)oc1-c1ccsc1 , what is its reported Reduction? 15

Try this compound next: CCCCOC(=O)Cc1nc(-c2ccc(Cl)cc2)oc1-c1ccsc1 22

Query compound follows.
Recorded Reduction for O=C(O)CCc1nc(-c2ccc(Cl)cc2)oc1-c1ccsc1 , please? 5

----------
Below: a set of entries, each annotated with reported Reduction.
Species on record: Rattus norvegicus
Test: Percent decrease in serum cholesterol (Cho) after 7 days at 0.05 percent in the diet of SD male rats in comparison to control animals
Type: functional
Answer in %, number only, no unit symbol.

Record excerpt, results attached:
Any idea what its Reduction is? The molecule is CCOC(=O)Cc1nc(-c2ccc(F)cc2)oc1-c1ccsc1 19

Next record, please: O=C(O)Cc1nc(-c2ccccc2)oc1-c1ccsc1 15

Consider next the molecule O=C(Cc1nc(-c2ccc(Cl)cc2)oc1-c1ccsc1)OCc1cccnc1 in the same way. 13

Query NC(=O)Cc1nc(-c2ccccc2)oc1-c1ccsc1 next 20

// repeat for CCOC(=O)C(C)(C)Oc1ccc(Cl)cc1 [CLOFIBRATE] and report 15

Then this molecule: NC(=O)Cc1nc(-c2ccc(F)cc2)oc1-c1ccsc1 19

Lookup O=C(O)Cc1nc(-c2ccc(F)cc2)oc1-c1cccs1 17

Read the next record carefully.
Reduction for O=C(O)Cc1nc(-c2ccc(Cl)cc2)oc1-c1ccccc1 ? 6
